# Measurement description: Metabolic stability in mouse liver microsomes
# Assay type: in vitro ADME
# Condition set: 0-60 minutes, read-out: in vitro intrinsic clearance

[
  {
    "Molecule smiles": "Oc1cc(CCCc2ccc(F)cc2)ccc1CN1CCCCC1",
    "microsomal CLint at 0.99 µM / µL/min/mg": 657
  }
]

----------
# Measurement description: In vivo PK evaluation in mice (blood, LC-MS/MS, non-compartmental analysis)
# Set-up: species or system male C57BL/6 mice
# Condition set: male, C57BL/6, whole blood; oral 50 mg/kg, mouse

[
  {
    "Molecule smiles": "Oc1cc(CCCc2ccc(F)cc2)ccc1CN1CCCCC1",
    "bioavailability [%]": 3.2
  }
]

----------
# Measurement description: In vivo PK evaluation in mice (blood, LC-MS/MS, non-compartmental analysis)
# Parameters: species or system male C57BL/6 mice
# Condition set: male, C57BL/6, whole blood; IV 5 mg/kg, mouse; read-out: mean blood concentration at seven hours after dosing
Result type: concentration at 7 h (nM)

[
  {
    "Molecule smiles": "Oc1cc(CCCc2ccc(F)cc2)ccc1CN1CCCCC1",
    "Test value": 140
  }
]

----------
# Measurement description: Plasma protein binding by ultracentrifugation
# Type: in vitro ADME
# Condition set: at 1000 ng/ml, read-out: PPB (plasma protein binding) (converted)
# Procedure: In this study, since the NSB > 5%, ultracentrifugation was used to assess the PPB property of NP046 [for the methodology see Additional file 3]. […] The supernatant was extracted, and its response was compared with that of the PBS extract after being analysed by the validated LC-MS/MS bioanalytical drug assay methods stated in chapters 8 and 9. PPB% was calculated using the equation: Where T = total drug concentration; and F = free drug concentration.

[
  {
    "Molecule smiles": "Oc1cc(CCCc2ccc(F)cc2)ccc1CN1CCCCC1",
    "fraction unbound at 6 h, 1000 ng/ml": 0.72
  }
]

----------
# Measurement description: In vivo PK evaluation in mice (blood, LC-MS/MS, non-compartmental analysis)
# Design: species or system male C57BL/6 mice
# Condition set: male, C57BL/6, whole blood; oral 50 mg/kg, mouse blood, mean ± S.E.M, n = 5; read-out: Apparent t 1/2 (converted)
Result type: half-life

[
  {
    "Molecule smiles": "Oc1cc(CCCc2ccc(F)cc2)ccc1CN1CCCCC1",
    "Test value": "4.4 h"
  }
]

----------
# Measurement description: In vivo PK evaluation in mice (blood, LC-MS/MS, non-compartmental analysis)
# Parameters: species or system male C57BL/6 mice
# Condition set: male, C57BL/6, whole blood; oral 10 mg/kg, mouse

[
  {
    "Molecule smiles": "Oc1cc(CCCc2ccc(F)cc2)ccc1CN1CCCCC1",
    "bioavailability": "6%"
  }
]

----------
# Measurement description: In vivo PK evaluation in mice (blood, LC-MS/MS, non-compartmental analysis)
# Set-up: species or system male C57BL/6 mice
# Condition set: male, C57BL/6, whole blood; oral 10 mg/kg, mouse

[
  {
    "Compound": "Oc1cc(CCCc2ccc(F)cc2)ccc1CN1CCCCC1 [NP046]",
    "Tmax, min": 48
  }
]

----------
# Measurement description: In vivo PK evaluation in mice (blood, LC-MS/MS, non-compartmental analysis)
# Design: species or system male C57BL/6 mice
# Condition set: male, C57BL/6, whole blood; IV 5 mg/kg, mouse; read-out: Blood CL total

[
  {
    "Molecule smiles": "Oc1cc(CCCc2ccc(F)cc2)ccc1CN1CCCCC1",
    "clearance / L/h/kg": 3.73
  }
]

----------
# Measurement description: In vivo PK evaluation in mice (blood, LC-MS/MS, non-compartmental analysis)
# Parameters: species or system male C57BL/6 mice
# Condition set: male, C57BL/6, whole blood; IV 5 mg/kg, mouse
# Experimental: The in vivo PK properties of NP046 were evaluated following oral (50 and 10 mg/kg) and IV (5 mg/kg) administration of the compound in water to male C57BL/6 mice (n = 5). […] Blood samples collected from mice following the administration of NP046 together with the calibration standards (STDs) and quality controls (QCs) of NP046 were analyzed using a validated LC-MS/MS assay (for details of the LC-MS/MS assay see Additional file 2). […]

[
  {
    "Molecule": "Oc1cc(CCCc2ccc(F)cc2)ccc1CN1CCCCC1 [NP046]",
    "Measurement units": "L/kg",
    "Vd": 16.9
  }
]

----------
# Measurement description: Kinetic solubility (HPLC-UV)
# Format: physicochemical
# Condition set: aqueous buffer, kinetic from dmso stock, PBS pH 2.0
The reader will find reported solubility at 2 h values listed item by item below.

[
  {
    "Compound": "Oc1cc(CCCc2ccc(F)cc2)ccc1CN1CCCCC1",
    "solubility at 2 h [µM]": 185
  },
  {
    "Compound": "COC(=O)[C@H]1[C@H]2C[C@@H]3c4[nH]c5cc(OC)ccc5c4CCN3C[C@H]2C[C@@H](OC(=O)c2cc(OC)c(OC)c(OC)c2)[C@@H]1OC [Reserpine, reference compound]",
    "solubility at 2 h [µM]": 193
  }
]

----------
# Measurement description: In vivo PK evaluation in mice (blood, LC-MS/MS, non-compartmental analysis)
# Set-up: species or system male C57BL/6 mice
# Condition set: male, C57BL/6, whole blood; oral 10 mg/kg, mouse blood, mean ± S.E.M, n = 5; read-out: Apparent t 1/2 (converted)
# Description: The in vivo PK properties of NP046 were evaluated following oral (50 and 10 mg/kg) and IV (5 mg/kg) administration of the compound in water to male C57BL/6 mice (n = 5). […] Blood samples collected from mice following the administration of NP046 together with the calibration standards (STDs) and quality controls (QCs) of NP046 were analyzed using a validated LC-MS/MS assay (for details of the LC-MS/MS assay see Additional file 2). […]
Result type: half-life (h)

[
  {
    "Molecule smiles": "Oc1cc(CCCc2ccc(F)cc2)ccc1CN1CCCCC1",
    "Result type": "half-life",
    "Test value": 3.1
  }
]

----------
# Measurement description: In vivo PK evaluation in mice (blood, LC-MS/MS, non-compartmental analysis)
# Design: species or system male C57BL/6 mice
# Condition set: male, C57BL/6, whole blood; oral 50 mg/kg, mouse; read-out: mean blood concentration at seven hours after dosing

[
  {
    "Molecule smiles": "Oc1cc(CCCc2ccc(F)cc2)ccc1CN1CCCCC1",
    "concentration at 7 h / µM": 0.05
  }
]

----------
# Measurement description: In vivo PK evaluation in mice (blood, LC-MS/MS, non-compartmental analysis)
# Design: species or system male C57BL/6 mice
# Condition set: male, C57BL/6, whole blood; oral 50 mg/kg, mouse blood
Result type: Cmax

[
  {
    "Molecule smiles": "Oc1cc(CCCc2ccc(F)cc2)ccc1CN1CCCCC1",
    "Result type": "Cmax",
    "Test value": "470 nM"
  }
]

----------
# Measurement description: In vivo PK evaluation in mice (blood, LC-MS/MS, non-compartmental analysis)
# Design: species or system male C57BL/6 mice
# Condition set: male, C57BL/6, whole blood; oral 10 mg/kg, mouse blood

[
  {
    "Compound": "Oc1cc(CCCc2ccc(F)cc2)ccc1CN1CCCCC1 [NP046]",
    "Measurement units": "nM",
    "Cmax": 130
  }
]

----------
# Measurement description: In vivo PK evaluation in mice (blood, LC-MS/MS, non-compartmental analysis)
# Set-up: species or system male C57BL/6 mice
# Condition set: male, C57BL/6, whole blood; oral 50 mg/kg, mouse
Result type: Tmax (min)

[
  {
    "Molecule smiles": "Oc1cc(CCCc2ccc(F)cc2)ccc1CN1CCCCC1",
    "Result type": "Tmax",
    "Test value": 30
  }
]

----------
# Measurement description: Metabolic stability in human liver microsomes
# Assay type: in vitro ADME
# Condition set: 0-60 minutes, read-out: in vitro intrinsic clearance
# Method: Metabolism is an enzymatic process in which a drug is chemically modified into polar metabolites that can be more readily excreted from the body. Metabolism occurs mainly in the liver, and the intestine. The metabolic stability of NP046 was determined in human and mouse liver microsomes using a multiple-time-point method at 0, 5, 10, 30, and 60 minutes [for the methodology see Additional file 5]. […] The intrinsic clearance (ml/min/kg) was calculated using the equation (Obach et al., 1997): […]
Result type: microsomal CLint at 0.99 µM (µL/min/mg)

[
  {
    "Molecule smiles": "Oc1cc(CCCc2ccc(F)cc2)ccc1CN1CCCCC1",
    "Measurement units": "µL/min/mg",
    "Test value": 119
  }
]

----------
# Measurement description: Plasma protein binding by ultracentrifugation
# Assay type: in vitro ADME
# Condition set: at 10 ng/ml, read-out: PPB (plasma protein binding) (converted)
Result type: fraction unbound at 6 h, 10 ng/ml

[
  {
    "Molecule smiles": "Oc1cc(CCCc2ccc(F)cc2)ccc1CN1CCCCC1",
    "Test value": 0.797
  }
]
